Target: Phospholipase A2 (Homo sapiens)
Sequence (P04054 whole entry): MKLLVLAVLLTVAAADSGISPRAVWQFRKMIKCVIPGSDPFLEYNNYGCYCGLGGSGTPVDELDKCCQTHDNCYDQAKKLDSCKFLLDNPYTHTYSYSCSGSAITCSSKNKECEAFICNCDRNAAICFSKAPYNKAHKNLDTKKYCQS
Assay: Compound was tested for inhibition of human secretory pancreatic PLA2

{"columns": ["STRUCTURE_STRING", "TESTED_ON", "IC50 / nM"],
 "data": [
  ["CCc1c(C(=O)C(N)=O)c2c(OCC(=O)O)cccc2n1Cc1cccc(Cl)c1", "Phospholipase A2 (Homo sapiens)", 390]
]}

* * *

# reported IC50; entries follow
Target: Phospholipase A2, membrane associated (Homo sapiens, UniProt P14555)
Sequence (P14555 whole entry): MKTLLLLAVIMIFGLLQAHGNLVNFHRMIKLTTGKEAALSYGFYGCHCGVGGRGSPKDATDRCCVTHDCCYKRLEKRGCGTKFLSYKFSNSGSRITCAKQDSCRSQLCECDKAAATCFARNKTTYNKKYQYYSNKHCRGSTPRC
Assay: Inhibition of human nonpancreatic secretory Phospholipase A2 through DOC/PC assay

{"columns": ["STRUCTURE_STRING", "IC50"],
 "data": [
  ["Cc1c(C(=O)C(N)=O)c2c(OCC(=O)O)cccc2n1Cc1ccc(F)cc1", "74 nM"],
  ["NC(=O)C(=O)c1c(C2CC2)n(Cc2ccccc2-c2ccccc2)c2cccc(OCC(=O)O)c12", "23 nM"],
  ["Cc1c(C(=O)C(N)=O)c2c(OCC(=O)O)cccc2n1Cc1ccccc1-c1ccccc1", "3 nM"],
  ["Cc1c(C(=O)C(N)=O)c2c(OCC(=O)O)cccc2n1Cc1c(Cl)cccc1Cl", "22 nM"],
  ["Cc1c(C(=O)C(N)=O)c2c(OCC(=O)O)cccc2n1Cc1ccccc1Cl", "25 nM"],
  ["Cc1c(C(=O)C(N)=O)c2c(OCC(=O)O)cccc2n1Cc1ccccc1", "19 nM"],
  ["CCc1c(C(=O)C(N)=O)c2c(OC(C)(C)C(=O)O)cccc2n1Cc1ccccc1", "29 nM"],
  ["Cc1c(C(=O)C(N)=O)c2c(O[C@@H](C)C(=O)O)cccc2n1Cc1ccccc1", "136 nM"],
  ["Cc1c(C(=O)C(N)=O)c2c(OCC(=O)O)cccc2n1Cc1ccc(-c2ccccc2)cc1", "150 nM"]
]}
